// reported EC50 per item
- System: Influenza B virus
- ASSAY TEXT: Antiviral activity against Influenza B virus B/Lee/40 assessed as reduction in plaque formation after 48 hrs by plaque reduction assay
- Assay type: functional, organism-based
- EXPERIMENTAL CONDITIONS: B/Lee/1940, 48 h
Write it as a number; the unit µM goes unstated.

INPUT: Return EC50 measured with Influenza B virus given this compound: Cc1cc(-c2ccccc2)nc2nc(NC(=O)c3ccccc3)nn12
OUTPUT: 25

INPUT: State its EC50 on Influenza B virus: CCCOc1ccc(C(=O)Nc2nc3n(n2)C(c2ccccc2)C=C(C)N3)cc1 (centres undefined)
OUTPUT: 51

INPUT: What value of EC50 on Influenza B virus does Cc1cc(-c2ccccc2)n2nc(C(=O)Nc3sc4c(c3C(N)=O)CCCCC4)nc2n1 have?
OUTPUT: 24

INPUT: Any idea what EC50 came out for Cc1cc(-c2ccccc2)nc2nc(C(=O)Nc3sc4c(c3C(N)=O)CCCCC4)nn12 on Influenza B virus?
OUTPUT: 5

----------
- ASSAY TEXT: Cytotoxicity against human HEK293T cells assessed as decrease in cell viability by MTT assay
- Type: cell-based, HEK-293T
Listed here are molecules together with their documented CC50.
Your answer is read as µM, so omit the unit and give the number.

Some molecules with recorded CC50:
{"columns": ["MOLECULE", "CC50, µM"],
 "data": [
  ["CCCOc1ccc(C(=O)Nc2nc3nc(-c4ccccc4)cc(C)n3n2)cc1", 52],
  ["COc1ccc(C(=O)Nc2nc3nc(-c4ccccc4)cc(C)n3n2)cc1", 109],
  ["CC1=CC(c2ccccc2)n2nc(NC(=O)c3cccc(F)c3)nc2N1 (stereo not given)", 220],
  ["CC1=CC(c2ccccc2)n2nc(NC(=O)c3ccc4ccccc4c3)nc2N1 (stereo not given)", 154],
  ["CC1=CC(c2ccccc2)n2nc(NC(=O)c3ccc(-c4ccccc4)cc3)nc2N1 (stereo not given)", 155],
  ["COc1ccccc1C(=O)Nc1nc2n(n1)C(c1ccccc1)C=C(C)N2 (stereo not given)", 240]
]}

INPUT: Returns the measured CC50 for the input molecule. Input: CC1=CC(c2ccccc2)n2nc(NC(=O)CCc3ccccc3)nc2N1 (stereo not given)
OUTPUT: 223

INPUT: Item under review: COc1ccc(C(=O)Nc2nc3nc(C)cc(-c4ccccc4)n3n2)cc1 . Reported CC50?
OUTPUT: 187

INPUT: // returns reported CC50 for input Cc1cc(-c2ccccc2)n2nc(C(=O)Nc3ccccc3)nc2n1
OUTPUT: 110

INPUT: Param item = COc1cccc(C(=O)Nc2nc3n(n2)C(c2ccccc2)C=C(C)N3)c1 (stereo not given) ; retrieve measured CC50.
OUTPUT: 230

INPUT: # input molecule: CCCOc1ccc(C(=O)Nc2nc3nc(C)cc(-c4ccccc4)n3n2)cc1 ; wanted: its CC50
OUTPUT: 95

INPUT: Please give the measured CC50 for this molecule: CCOc1ccc(C(=O)Nc2nc3n(n2)C(c2ccccc2)C=C(C)N3)cc1 (stereo not given)
OUTPUT: 237

INPUT: Need CC50 of Cc1cc(-c2ccccc2)nc2nc(NC(=O)c3ccccc3)nn12 , thanks.
OUTPUT: 196

INPUT: Given the molecule CC1=CC(c2ccccc2)n2nc(NC(=O)c3ccc(Oc4ccccc4)cc3)nc2N1 (stereo not given) , what is its reported CC50?
OUTPUT: 73

INPUT: What does the record list as CC50 for CC1=CC(c2ccccc2)n2nc(NC(=O)c3ccc(F)cc3)nc2N1 (stereo not given) ?
OUTPUT: 190

INPUT: Given the entry O=[N+]([O-])c1ccc(Oc2ccc(-n3cc(CO)nn3)cc2)c2nonc12 , report its measured CC50.
OUTPUT: 40

----------
Papp at 18 h for assorted molecules
- ASSAY TEXT: Permeability of the compound assessed as passive diffusion from donor compartment to acceptor compartment after 18 hrs by PAMPA assay
- Assay type: physicochemical
- EXPERIMENTAL CONDITIONS: read-out: Peff
The figure you give is taken to be in ×10⁻⁶ cm/s; do not add the unit.

Consider the following illustrative entries.
{"columns": ["MOLECULE", "NUMERIC RESULT"],
 "data": [
  ["COc1ccc(C(=O)Nc2nc3n(n2)C(c2ccccc2)C=C(C)N3)cc1 (centres undefined)", 3.52],
  ["Cc1cc(-c2ccccc2)nc2nc(NC(=O)c3ccccc3)nn12", 5.49],
  ["Cc1cc(-c2ccccc2)n2nc(C(=O)Nc3sc4c(c3C(N)=O)CCCCC4)nc2n1", 0.61]
]}

Alright, here's another molecule for you.
INPUT: Give its Papp at 18 h value. Item: CCCOc1ccc(C(=O)Nc2nc3n(n2)C(c2ccccc2)C=C(C)N3)cc1 (centres undefined)
OUTPUT: 2.93

----------
- ASSAY TEXT: Permeability of the compound assessed as membrane drug retention after 18 hrs by PAMPA assay
- Assay type: physicochemical
- Parameters: concentration or dose not given beside the values
Listing of recorded Activity by entry.
Give the quantity in %, number only.

Answered cases to consult:
{"columns": ["COMPOUND", "UNITS SYMBOL", "Activity"],
 "data": [
  ["Cc1cc(-c2ccccc2)nc2nc(C(=O)Nc3sc4c(c3C(N)=O)CCCCC4)nn12", "%", 99],
  ["CCCOc1ccc(C(=O)Nc2nc3n(n2)C(c2ccccc2)C=C(C)N3)cc1 (stereo not given)", "%", 41],
  ["Cc1cc(-c2ccccc2)nc2nc(NC(=O)c3ccccc3)nn12", "%", 2]
]}

INPUT: Quick one: Activity of COc1ccc(C(=O)Nc2nc3n(n2)C(c2ccccc2)C=C(C)N3)cc1 (stereo not given) ?
OUTPUT: 57

INPUT: Given Cc1cc(-c2ccccc2)n2nc(C(=O)Nc3sc4c(c3C(N)=O)CCCCC4)nc2n1 , state its recorded Activity.
OUTPUT: 45

----------
- TARGET OR TEST SYSTEM: PA/PB1 (Influenza A virus (A/Puerto Rico/8/1934(H1N1)), UniProt P03431+P03433)
pIC50: −log10 of the molar value.
Kindly return Condition met if reported pIC50 is no lower than 4; return Condition not met if it is lower.

{"columns": ["COMPOUND", "TARGET OR TEST SYSTEM", "LABEL CLASS"],
 "data": [
  ["COC(=O)C1=C(N)N(c2cccc(Cl)c2C)C2=C(C(=O)CCC2)C1c1ccc2c(c1)OCO2 (configuration not stated)", "PA/PB1 (Influenza A virus (A/Puerto Rico/8/1934(H1N1)), UniProt P03431+P03433)", "Condition met"],
  ["NC(=O)c1c(NC(=O)c2cnn3c(C(F)F)cc(-c4ccccc4)nc23)sc2c1CCC2", "PA/PB1 (Influenza A virus (A/Puerto Rico/8/1934(H1N1)), UniProt P03431+P03433)", "Condition met"],
  ["Nc1ccc(O)c2c1C(=O)c1c(N)ccc(O)c1C2=O", "PA/PB1 (Influenza A virus (A/Puerto Rico/8/1934(H1N1)), UniProt P03431+P03433)", "Condition met"],
  ["COc1ccc(C(=O)Nc2nc3n(n2)C(c2ccccc2)C=C(C)N3)cc1 (configuration not stated)", "PA/PB1 (Influenza A virus (A/Puerto Rico/8/1934(H1N1)), UniProt P03431+P03433)", "Condition not met"],
  ["COc1cccc(C(=O)Nc2nc3n(n2)C(c2ccccc2)C=C(C)N3)c1 (configuration not stated)", "PA/PB1 (Influenza A virus (A/Puerto Rico/8/1934(H1N1)), UniProt P03431+P03433)", "Condition not met"]
]}

INPUT: Could you please find out whether CCCOc1ccc(C(=O)Nc2nc3n(n2)C(c2ccccc2)C=C(C)N3)cc1 (configuration not stated) has pIC50 that meets 4 or exceeds it?
OUTPUT: Condition met

INPUT: Is reported pIC50 greater than or equal to 4 here: COc1ccc(C(=O)Nc2nc3nc(-c4ccccc4)cc(C)n3n2)cc1
OUTPUT: Condition not met

INPUT: Assess whether reported pIC50 for CC1=CC(c2ccccc2)n2nc(NC(=O)c3ccc(-c4ccccc4)cc3)nc2N1 (configuration not stated) sits at 4 or higher.
OUTPUT: Condition not met

INPUT: Exam item: decide whether the reported pIC50 for Cc1cc(-c2ccccc2)nc2nc(NC(=O)c3ccccc3)nn12 is at least 4.
OUTPUT: Condition met

INPUT: # bool: pIC50 of COc1ccc(C(=O)Nc2nc3nc(C)cc(-c4ccccc4)n3n2)cc1 >= 4
OUTPUT: Condition not met

INPUT: Decide: is the reported value of pIC50 for COc1ccccc1C(=O)Nc1nc2n(n1)C(c1ccccc1)C=C(C)N2 (configuration not stated) equal to or greater than 4?
OUTPUT: Condition not met
